Square brackets hold non-standard residues; d marks the D form. Peptide text beside a SMILES is read from it. * marks the point of attachment. ξ: configuration not given here. ξF = NC(Cc1ccccc1)C(=O)O; Boc = CC(C)(C)OC(=O)*; CF3 = FC(F)(F)*
Quantity: pKi
Remember the convention: pKi equals -log10 of concentration in molar.

input: Give pKi; test system Cathepsin G (Homo sapiens, UniProt P08311); compound CC(C)[C@H](NC(=O)OC(C)(C)C)C(=O)N1CCC[C@H]1C(=O)NC(Cc1ccccc1)C(=O)C(F)(F)F (stereo partly drawn) (Boc-Val-Pro-[ξF]-CF3)
output: 5.77
